Reference source: paper PMC11995216

Tested on: PAMPA
Settings: Papp (x 10^-6 cm/s) – ELSD Detection / [row 8]; ELSD Detection
We begin with a simple list: items and their reported Papp.
Output should be the measured figure followed by the unit it is expressed in.

CCCCC[C@@H]1OC(=O)[C@@H](C)N(C)C(=O)[C@H](CCCCC)OC(=O)[C@@H](C)N(C)C1=O    5.23 ×10⁻⁶ cm/s
CCCCC[C@@H]1OC(=O)[C@@H](C)N(C)C1=O    15 ×10⁻⁶ cm/s

Now consider the entry below.
Query :: Query for PAMPA: what Papp does the record show for CCCCC[C@@H]1OC(=O)[C@@H](C)N(C)C(=O)[C@H](CCCCC)OC(=O)[C@@H](C)N(C)C(=O)[C@H](CCCCC)OC(=O)[C@@H](C)N(C)C(=O)[C@H](CCCCC)OC(=O)[C@@H](C)N(C)C(=O)[C@H](CCCCC)OC(=O)[C@@H](C)N(C)C1=O ?
Result :: 2.83 ×10⁻⁶ cm/s

----------
Test system: PAMPA
Conditions: Papp (x 10^-6 cm/s) – UV Detection / [row 8]; UV Detection
property measured: Papp (×10⁻⁶ cm/s)
All answers are understood in ×10⁻⁶ cm/s, so give the number only.

CCCCC[C@@H]1OC(=O)[C@@H](C)N(C)C(=O)[C@H](CCCCC)OC(=O)[C@@H](C)N(C)C(=O)[C@H](CCCCC)OC(=O)[C@@H](C)N(C)C(=O)[C@H](CCCCC)OC(=O)[C@@H](C)N(C)C(=O)[C@H](CCCCC)OC(=O)[C@@H](C)N(C)C(=O)[C@H](CCCCC)OC(=O)[C@@H](C)N(C)C1=O    1.91

Query :: Could you tell me which Papp is on file for CCCCC[C@@H]1OC(=O)[C@@H](C)N(C)C1=O ?
Result :: 12.7

Query :: Param item = CCCCC[C@@H]1OC(=O)[C@@H](C)N(C)C(=O)[C@H](CCCCC)OC(=O)[C@@H](C)N(C)C(=O)[C@H](CCCCC)OC(=O)[C@@H](C)N(C)C1=O [Compound C1.3, ent-verticilide B1] ; retrieve measured Papp.
Result :: 4

----------
System: PAMPA
Details: Acceptor Concentration (uM) / experiment 3; UV detection; initial concentration 500 uM
property measured: Acceptor Concentration (µM)
The figure you give is taken to be in µM; do not add the unit.

Example cases with answers are listed next.
CCCCC[C@H](OC(=O)[C@@H](C)N(C)C(=O)[C@H](CCCCC)OC(=O)[C@@H](C)N(C)C(=O)OC(C)(C)C)C(=O)OCc1ccccc1 [Compound L1.2]    77.4
CCCCC[C@H](OC(=O)[C@@H](C)N(C)C(=O)[C@H](CCCCC)OC(=O)[C@@H](C)N(C)C(=O)[C@H](CCCCC)OC(=O)[C@@H](C)N(C)C(=O)[C@H](CCCCC)OC(=O)[C@@H](C)N(C)C(=O)OC(C)(C)C)C(=O)OCc1ccccc1 [Compound L1.4]    64.4

Query :: Please report the recorded Acceptor Concentration for CCCCC[C@H](OC(=O)[C@@H](C)N(C)C(=O)[C@H](CCCCC)OC(=O)[C@@H](C)N(C)C(=O)[C@H](CCCCC)OC(=O)[C@@H](C)N(C)C(=O)OC(C)(C)C)C(=O)OCc1ccccc1 [Compound L1.3] .
Result :: 74.5

Query :: Value lookup for Acceptor Concentration; key = CCCCC[C@H](OC(=O)[C@@H](C)N(C)C(=O)[C@H](CCCCC)OC(=O)[C@@H](C)N(C)C(=O)[C@H](CCCCC)OC(=O)[C@@H](C)N(C)C(=O)[C@H](CCCCC)OC(=O)[C@@H](C)N(C)C(=O)[C@H](CCCCC)OC(=O)[C@@H](C)N(C)C(=O)OC(C)(C)C)C(=O)OCc1ccccc1 [Compound L1.5]
Result :: 40.2

Query :: Bench note: what Acceptor Concentration did CCCCC[C@H](OC(=O)[C@@H](C)N(C)C(=O)OC(C)(C)C)C(=O)OCc1ccccc1 [Compound L1.1] show?
Result :: 79.7
